Hey, just so you know, these numbers are from ChEMBL document CHEMBL2321703.

TARGET_OF_ASSAY: D-aspartate oxidase (Homo sapiens)
Sequence (Q99489 whole entry): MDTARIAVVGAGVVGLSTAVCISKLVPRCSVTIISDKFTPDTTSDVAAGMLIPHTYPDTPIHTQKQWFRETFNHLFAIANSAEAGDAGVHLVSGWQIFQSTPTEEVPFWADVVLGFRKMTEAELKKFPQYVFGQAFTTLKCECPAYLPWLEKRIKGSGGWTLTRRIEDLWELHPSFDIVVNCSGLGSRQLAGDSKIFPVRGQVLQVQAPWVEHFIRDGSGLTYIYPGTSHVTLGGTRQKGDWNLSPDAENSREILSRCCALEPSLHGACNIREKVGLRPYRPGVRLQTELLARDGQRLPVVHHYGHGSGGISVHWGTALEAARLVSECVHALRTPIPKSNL
ASSAY_PROCEDURE: Inhibition of human recombinant N-terminal His-tagged DDO expressed in Escherichia coli BL21(DE3) using D-aspartate as substrate by colorimetric assay
PARAMETER: inhibition

Consider the worked cases shown below.
MOLECULE	inhibition
O=C(O)[C@@H](O)[C@@H](O)C(=O)O	Dose-dependent effect
CCCc1cc(C(=O)O)sc1C	Dose-dependent effect
O=C(O)c1ccsc1	Dose-dependent effect
CCc1cc(C(=O)O)sc1C	Dose-dependent effect
O=C(O)CC(=O)O	Dose-dependent effect

Please give the measured inhibition for this molecule: "Cc1ccccc1-c1nnc(O)o1" Dose-dependent effect

For "O=C(O)c1cc2c(s1)CCCC2" then? Dose-dependent effect

For O=c1oc2ccccc2cc1O [3-HYDROXYCOUMARIN] then? Dose-dependent effect

For "O=C(O)/C=C/c1cccc(O)c1" then? Dose-dependent effect

For "O=C(O)c1cc2c(s1)CCC2" then? Dose-dependent effect

For "CCCc1sc(C(=O)O)cc1CC" then? Dose-dependent effect

For "O=c1[nH]nc(-c2ccccc2)o1" then? Dose-dependent effect

----------
TARGET_OF_ASSAY: D-amino-acid oxidase (Homo sapiens)
Sequence (P14920 whole entry): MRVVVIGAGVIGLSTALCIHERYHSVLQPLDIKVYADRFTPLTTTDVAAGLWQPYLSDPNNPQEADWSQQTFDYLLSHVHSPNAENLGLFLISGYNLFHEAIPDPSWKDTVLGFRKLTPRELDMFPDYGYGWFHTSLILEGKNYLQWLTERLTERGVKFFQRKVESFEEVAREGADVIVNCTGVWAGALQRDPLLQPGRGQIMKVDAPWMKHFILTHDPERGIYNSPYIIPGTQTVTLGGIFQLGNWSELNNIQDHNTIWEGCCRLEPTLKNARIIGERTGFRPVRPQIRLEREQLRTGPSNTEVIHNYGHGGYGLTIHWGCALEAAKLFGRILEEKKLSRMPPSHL
PARAMETER: Ki (µM)
Quick note: give the figure in µM, leave out the unit.

Please give the measured Ki for this compound: O=C(O)c1ccccc1 [BENZOIC ACID] 7

----------
TARGET_OF_ASSAY: UniProtKB Q99489
ASSAY_PROCEDURE: Inhibition of human recombinant N-terminal His-tagged DDO expressed in Escherichia coli BL21(DE3) using D-aspartate as substrate by colorimetric assay
pIC50: −log10 of the molar value.
PARAMETER: pIC50

Please give the measured pIC50 for this molecule: "CCCc1sc(C(=O)O)cc1CC" < 2.00

For "O=C(O)c1cc2c(s1)CCCC2" then? < 2.00

For "CCc1cc(C(=O)O)sc1C" then? < 2.00

For O=c1oc2ccccc2cc1O [3-HYDROXYCOUMARIN] then? 2.12

For C/C=C/C(=O)O [CROTONIC ACID] then? < 2.00

For "Cc1ccccc1-c1nnc(O)o1" then? < 2.30

For O=C(O)C(O)C(O)C(=O)O (stereo not drawn) then? 2.41

For O=C(O)CC(=O)O [MALONIC ACID] then? 2.87

----------
TARGET_OF_ASSAY: D-amino-acid oxidase (Homo sapiens)
ASSAY_PROCEDURE: Inhibition of human recombinant N-terminal His-tagged DAO expressed in Escherichia coli BL21(DE3) using D-serine as substrate by colorimetric assay
PARAMETER: IC50 (µM)

Consider the worked cases shown below.
COMPOUND	IC50 (µM)
O=C(O)c1cc2c(s1)CCCC2	900
O=C(O)/C=C/c1cccc(O)c1	6270
CCCc1sc(C(=O)O)cc1CC	7900
O=C(O)c1ccccc1 [BENZOIC ACID]	46.9
O=c1[nH]nc(-c2ccccc2)o1	253

a. CCCc1cc(C(=O)O)sc1C
b. CCc1cc(C(=O)O)sc1C
Looking at a and b , which one comes out lower in IC50 terms? Give the label under which the chosen entry appears. b
(b: 666 µM, a: 1830 µM)

I. C/C=C/C(=O)O [CROTONIC ACID]
II. O=c1oc2ccccc2cc1O [3-HYDROXYCOUMARIN]
Task for the reader: decide whether I or II has the larger IC50. Give the label under which the chosen entry appears. I
(I: 357 µM, II: 0.44 µM)

a. O=C(O)c1cc2c(s1)CCC2
b. Cc1ccccc1-c1nnc(O)o1
Looking at a and b , which one comes out lower in IC50 terms? Give the label under which the chosen entry appears. a
(a: 28.5 µM, b: 199 µM)
